Reference source: ChEMBL document CHEMBL1136989

# reported ΔTm; entries follow
Test system: Nucleic Acid
Experiment: Stabilization of human G4-KIT1 DNA quadruplex assessed as melting temperature by FRET assay
Assay type: nucleic-acid assay

STRUCTURE_NOTATION	ΔTm [°C]
CN(C)c1ccc(Nc2c3ccc(NC(=O)CCN4CCCC4)cc3nc3cc(NC(=O)CCN4CCCC4)ccc23)cc1	6.5
Cc1ccc(NC(=O)c2ccc(CN3CCN(C)CC3)cc2)cc1Nc1nccc(-c2cccnc2)n1	0.2
O=C1c2cc(NCCN3CCCC3)c3c4c(cc(NCCN5CCCC5)c(c24)C(=O)N1CCN1CCCC1)C(=O)N(CCN1CCCC1)C3=O	11.2
C[n+]1ccc(-c2c3nc(c(-c4cc[n+](C)cc4)c4ccc([nH]4)c(-c4cc[n+](C)cc4)c4ccc([nH]4)c(-c4cc[n+](C)cc4)c4nc2C=C4)C=C3)cc1	11.1

* * *

System: Nucleic Acid
Experiment: Stabilization of synthetic duplex DNA assessed as melting temperature by FRET assay
Type: nucleic-acid assay
# reported ΔTm; entries follow
OBSERVED_PROPERTY: ΔTm (°C)

MOLECULE	RECORDED_NUMBER
Cc1ccc(NC(=O)c2ccc(CN3CCN(C)CC3)cc2)cc1Nc1nccc(-c2cccnc2)n1 [IMATINIB]	0.1
CN(C)c1ccc(Nc2c3ccc(NC(=O)CCN4CCCC4)cc3nc3cc(NC(=O)CCN4CCCC4)ccc23)cc1	7.2
O=C1c2cc(NCCN3CCCC3)c3c4c(cc(NCCN5CCCC5)c(c24)C(=O)N1CCN1CCCC1)C(=O)N(CCN1CCCC1)C3=O	5.7
C[n+]1ccc(-c2c3nc(c(-c4cc[n+](C)cc4)c4ccc([nH]4)c(-c4cc[n+](C)cc4)c4ccc([nH]4)c(-c4cc[n+](C)cc4)c4nc2C=C4)C=C3)cc1 [TMPYP4]	8.7

* * *

Test system: Nucleic Acid
Assay: Stabilization of human G4-telomeric quadruplex assessed as melting temperature by FRET assay
Assay type: nucleic-acid assay
OBSERVED_PROPERTY: ΔTm

COMPOUND	TARGET_UNDER_TEST	OBSERVED_PROPERTY	RESULT
Cc1ccc(NC(=O)c2ccc(CN3CCN(C)CC3)cc2)cc1Nc1nccc(-c2cccnc2)n1 [IMATINIB]	Nucleic Acid	ΔTm	0.2 °C
CN(C)c1ccc(Nc2c3ccc(NC(=O)CCN4CCCC4)cc3nc3cc(NC(=O)CCN4CCCC4)ccc23)cc1	Nucleic Acid	ΔTm	21.6 °C
C[n+]1ccc(-c2c3nc(c(-c4cc[n+](C)cc4)c4ccc([nH]4)c(-c4cc[n+](C)cc4)c4ccc([nH]4)c(-c4cc[n+](C)cc4)c4nc2C=C4)C=C3)cc1 [TMPYP4]	Nucleic Acid	ΔTm	27.8 °C
O=C1c2cc(NCCN3CCCC3)c3c4c(cc(NCCN5CCCC5)c(c24)C(=O)N1CCN1CCCC1)C(=O)N(CCN1CCCC1)C3=O	Nucleic Acid	ΔTm	28.7 °C
